Test: Cargo loading and ApoBP ligand content by microBCA / BCA assay
Type: physicochemical
Conditions: peptide in PLGA nanoparticles, Table 66
Measure Name: Loading Capacity

A selection of reference data follows.
[
  {
    "Substance": "#3 (MAKLTILVALALFLL; listed as Arachis hypogaea)",
    "Loading Capacity": "1.31 + 1.72"
  },
  {
    "Substance": "#4 (SYGRDPYSPSQDPYS; listed as Arachis hypogaea)",
    "Loading Capacity": "8.68 + 2.04"
  },
  {
    "Substance": "#2 (LRNLPQQCGLRAPQR; listed as Arachis hypogaea)",
    "Loading Capacity": "3.22 + 1.96"
  }
]

Which Loading Capacity is listed for #1 (LALFLLAAHASARQQ; listed as Arachis hypogaea) ?
1.62 + 2.11

Each recorded value in this set is attributed to patent US20250339514A1.
